Here the recorded log10 Kd is given for each entry.
Target: T1, EsCas13d, nuclease-dead (Eubacterium siraeum, UniProt B0MS50, R295A;H300A;R849A;H854A)
T1 sequence: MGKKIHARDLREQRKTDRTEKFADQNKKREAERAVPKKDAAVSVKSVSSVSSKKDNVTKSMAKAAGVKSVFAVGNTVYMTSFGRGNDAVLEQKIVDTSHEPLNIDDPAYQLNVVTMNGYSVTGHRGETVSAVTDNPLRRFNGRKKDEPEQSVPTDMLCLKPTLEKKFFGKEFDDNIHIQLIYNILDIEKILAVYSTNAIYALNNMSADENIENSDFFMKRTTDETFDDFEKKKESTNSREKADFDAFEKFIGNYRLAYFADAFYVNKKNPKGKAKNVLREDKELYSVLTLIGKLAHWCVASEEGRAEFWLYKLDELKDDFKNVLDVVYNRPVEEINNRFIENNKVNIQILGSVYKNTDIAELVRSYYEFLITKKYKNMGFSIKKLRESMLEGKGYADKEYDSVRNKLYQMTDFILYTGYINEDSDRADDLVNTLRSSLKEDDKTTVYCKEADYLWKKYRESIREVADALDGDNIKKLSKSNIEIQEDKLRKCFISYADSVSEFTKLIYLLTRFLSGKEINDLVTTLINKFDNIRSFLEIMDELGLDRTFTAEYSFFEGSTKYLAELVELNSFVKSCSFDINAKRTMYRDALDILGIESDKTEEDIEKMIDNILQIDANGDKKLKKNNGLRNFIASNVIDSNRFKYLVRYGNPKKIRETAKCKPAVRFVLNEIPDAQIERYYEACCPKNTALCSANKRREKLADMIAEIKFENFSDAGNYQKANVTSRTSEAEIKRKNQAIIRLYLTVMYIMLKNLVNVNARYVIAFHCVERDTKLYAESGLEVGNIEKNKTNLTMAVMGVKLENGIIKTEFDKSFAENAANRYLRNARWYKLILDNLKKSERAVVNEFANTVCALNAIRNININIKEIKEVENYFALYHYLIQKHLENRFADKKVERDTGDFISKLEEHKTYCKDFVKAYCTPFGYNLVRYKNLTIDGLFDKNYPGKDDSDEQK
Assay: crRNA (strand 1, pre-loaded); Mg2+; 40 mM Tris-HCl pH 7.5, 150 mM NaCl, 6 mM MgCl2, 1 mM DTT, 0.1% Tween-20, 0.2 mg/ml BSA; 25 C; 10 min per concentration, then washed
Conditions: tags: His6-TwinStrep-SUMO cleaved; N-terminal SNAP kept (SNAP-Surface 488); label: 3' end held by stalled T7 RNA polymerase
// units: µM (pre-log); metric: Kd; scale: log10

Take a look at these entries with their results.
Binder	log10 Kd
target 1 insU 3' of 5,insG 3' of 3 (mixed) RNA 1: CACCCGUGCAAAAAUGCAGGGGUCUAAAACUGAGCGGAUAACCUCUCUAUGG RNA 2: GGGAAUGGAUCCACAUCUACGAAUUCGUACCAUAGAGAGGUUAUCCGUCUGCACCGAGAUCGGAAGAGCACACGU	-1.89
target 1 MT 5'PFS GUU 3'PFS UUU (mixed) RNA 1: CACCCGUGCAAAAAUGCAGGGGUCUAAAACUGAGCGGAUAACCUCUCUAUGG RNA 2: GGGAAUGGAUCCACAUCUACGAAUUCGUUCCAUAGAGAGGUUAUCCGCUCAUUUAGAUCGGAAGAGCACACGU	-2.05
target 1 insU 3' of 18,insG 3' of 2 (mixed) RNA 1: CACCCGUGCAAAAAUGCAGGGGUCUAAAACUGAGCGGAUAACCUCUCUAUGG RNA 2: GGGAAUGGAUCCACAUCUACGAAUUCGUACCAUAUGAGAGGUUAUCCGCUCGACCGAGAUCGGAAGAGCACACGU	-1.58
target 1 U8C,A14C (mixed) RNA 1: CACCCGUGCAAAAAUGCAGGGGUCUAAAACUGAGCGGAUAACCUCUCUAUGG RNA 2: GGGAAUGGAUCCACAUCUACGAAUUCGUACCAUAGAGCGGUUACCCGCUCACCGAGAUCGGAAGAGCACACGU	-1.09
target 2 MT 5'PFS UAA 3'PFS UGC (mixed) RNA 1: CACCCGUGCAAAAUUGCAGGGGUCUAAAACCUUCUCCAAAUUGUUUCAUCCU RNA 2: GGGAAUGGAUCCACAUCUACGAAUUCUAAAGGAUGAAACAAUUUGGAGAAGUGCAGAUCGGAAGAGCACACGU	-2.25

QUERY: I would be grateful if you could share the reported log10 Kd for target 1 C7G,A9G (mixed) RNA 1: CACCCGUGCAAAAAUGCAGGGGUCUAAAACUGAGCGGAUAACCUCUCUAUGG RNA 2: GGGAAUGGAUCCACAUCUACGAAUUCGUACCAUAGAGAGGUUGUGCGCUCACCGAGAUCGGAAGAGCACACGU .
RESULT: -1.84

QUERY: # lookup: log10 Kd of target 2 MT 5'PFS UAG 3'PFS ACU (mixed) RNA 1: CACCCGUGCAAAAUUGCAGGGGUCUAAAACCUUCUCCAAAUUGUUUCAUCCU RNA 2: GGGAAUGGAUCCACAUCUACGAAUUCUAGAGGAUGAAACAAUUUGGAGAAGACUAGAUCGGAAGAGCACACGU
RESULT: -2.35

QUERY: Quick check: log10 Kd of target 1 C4G,U19G (mixed) RNA 1: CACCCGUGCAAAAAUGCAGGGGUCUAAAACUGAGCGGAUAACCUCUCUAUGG RNA 2: GGGAAUGGAUCCACAUCUACGAAUUCGUACCAGAGAGAGGUUAUCCGGUCACCGAGAUCGGAAGAGCACACGU ?
RESULT: -1.00
